biological target: TbrCatL (Trypanosoma brucei rhodesiense, UniProt Q95PM0); construct: Conor Caffrey (University of California San Diego); assay: TbrCatL enzymatic inhibition assay (cleavage of fluorogenic substrate Z-FR-AMC); format: biochemical; conditions: 0’ (pre-incubation time); sheet "Screening results";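 also: at 5 µM compound concentration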
Sequence (Q95PM0 entry or part of it): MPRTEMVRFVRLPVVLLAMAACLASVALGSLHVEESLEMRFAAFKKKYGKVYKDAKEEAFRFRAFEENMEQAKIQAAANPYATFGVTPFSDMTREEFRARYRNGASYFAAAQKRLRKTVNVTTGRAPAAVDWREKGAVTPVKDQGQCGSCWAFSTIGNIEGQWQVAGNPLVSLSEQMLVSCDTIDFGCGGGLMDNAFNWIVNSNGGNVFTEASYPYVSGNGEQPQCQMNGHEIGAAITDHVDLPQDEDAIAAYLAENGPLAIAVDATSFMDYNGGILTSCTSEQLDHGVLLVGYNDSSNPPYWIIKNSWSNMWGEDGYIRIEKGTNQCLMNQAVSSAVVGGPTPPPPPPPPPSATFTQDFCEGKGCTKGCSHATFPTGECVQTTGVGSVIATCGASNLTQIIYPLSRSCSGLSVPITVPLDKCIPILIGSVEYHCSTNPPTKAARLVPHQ
EXPERIMENTAL_READOUT: TbrCatL 0’ Inhibition (%)
Answers are plain numbers, in %.

INSERT INTO measurements (compound, experimental_readout, value_observed) VALUES
  ('CCCS(=O)(=O)N1CCC(CO)(Cc2ccccc2C(F)(F)F)CC1', 'TbrCatL 0’ Inhibition', -3.7);

# batch size: 6; output TbrCatL 0’ Inhibition per entry
1. Nc1ncnc2c1c(-c1cnc3ccccc3c1)nn2CC1CCNCC1
2. COc1ccc(Cn2cnc3c(-c4ccco4)nc(Cl)nc32)cc1
3. OC[C@H]1O[C@@H](n2c3ccc(Cl)cc3c3c(-c4cc5ccccc5o4)ncnc32)C(O)[C@H]1O (stereo partly shown)
4. COc1cccc(-c2nc3c(N4CCCC4)cccc3n2CC2CCCN2)n1 (stereo not shown)
5. COc1ccc(C(=N)N)cc1-c1cn(-c2ccc(C(=N)N)cc2)nn1
6. O=C([C@@H](c1ccc(Cl)cc1)c1cccnc1)N1CCN(c2ccc(C(F)(F)F)cc2)CC1

A:
[1.7, 15, 5.5, 26, 2, 6.4]

###

molecular target: TbrCatL (Trypanosoma brucei rhodesiense); construct: Conor Caffrey (University of California San Diego); assay: TbrCatL enzymatic inhibition assay (cleavage of fluorogenic substrate Z-FR-AMC); type: biochemical; settings: 10’ (pre-incubation); sheet Screening results
Provide the recorded TbrCatL Inhibition 10’ for the entries that follow.
Answers are plain numbers, in %.

INSERT INTO measurements (molecule, experimental_readout, units_symbol, value_observed) VALUES
  ('Cc1ccc(S(=O)(=O)Nc2ccc(CN3CCN(C(=O)c4cccc(C#N)c4)CC3)cc2)cc1', 'TbrCatL Inhibition 10’', '%', -0.3),
  ('NCCC[C@@](N)(C(=O)O)C(F)F', 'TbrCatL Inhibition 10’', '%', -1.9),
  ('Cc1cccc(NC(=O)c2cc(S(=O)(=O)N(C)c3ccc(F)cc3)ccc2Cl)n1', 'TbrCatL Inhibition 10’', '%', 1.8);

# batch size: 7; output TbrCatL Inhibition 10’ per entry
1. O=C1Nc2ccc(Br)cc2C12NCCc1c2[nH]c2ccccc12 (stereo not shown)
2. CS(=O)(=O)N1CCC(CCn2nc(Cc3cccc4ccccc34)c3c(N)ncnc32)CC1
3. Brc1cncc(-c2cc(NCCCn3ccnc3)nc(-c3ccccc3)n2)c1
4. CC(=O)Oc1ccccc1C(=O)Nc1ncc([N+](=O)[O-])s1
5. COC(=O)c1c(NC(=O)c2c(F)c(F)c(F)c(F)c2F)sc2c1CCCCC2
6. CNC(=O)c1cc(S(=O)(=O)N2CCN(c3ccccn3)CC2)cs1
7. CC(=O)Nc1ccc(-c2noc(CC3CCCN(Cc4cccc(F)c4C)C3)n2)cc1 (stereo not shown)

A:
1: 2.6; 2: 9; 3: 10; 4: 3.7; 5: 9; 6: -5.6; 7: 0.8

# batch size: 3; output TbrCatL Inhibition 10’ per entry
1. CS(=O)(=O)c1ccc(C(=O)N(CC2CCCO2)c2nc3ccccc3s2)cc1[N+](=O)[O-] (stereo not shown)
2. CC(C)(C)c1cc(C(=O)Nc2cccnc2)cc(C(=O)Nc2cccnc2)c1
3. CC1CCCCN1C(=O)NCCc1coc(-c2ccc(F)cc2)n1 (stereo not shown)

A:
1: 1.2; 2: -7; 3: 15
